REPORTED PROPERTY: melting point (°C)

Sample answers from the record:
CCN(CC)C(=O)C1CN2CCc3cc(OC)c(OC)cc3C2CC1OC(C)=O (stereo unspecified)    131
O=C(CCl)c1ccc(O)c(O)c1    174
CCn1cc(C(=O)O)c(=O)c2cc(F)c(N3CCNCC3)cc21    228
Cc1cccnc1C#N    86

(P) CCCCCCCCCCCCCC(C)C
(Q) Cc1ccnc2c1NC(=O)c1cccnc1N2C1CC1
I'm curious, which of these has a smaller melting point number: P or Q ? In your reply, give the label of the chosen option.
P

----------
REPORTED PROPERTY: melting point (°C)

Sample answers from the record:
COc1ccccc1C1(C)CCc2oc3ccccc3c2-c2oc(C)cc21 (stereo not drawn)    158
O=[N+]([O-])c1c(Cl)ccc(O)c1Cl    87
CCCCCCCCCCS    -26
CCOc1ccc(C(=O)OCCN(CC)CC)cc1    173
CC(Cl)C(C)Cl (stereo not drawn)    -80
COc1cc2c(Cc3ccccc3)cncc2cc1O    207
CCCCCCCCCCC(C)C(=O)O (stereo not drawn)    22
O=C1CCC(F)(F)CC1    39

(I) Cc1cc(C)c(NC(=O)C(C(F)(F)F)C(F)(F)F)c(C)c1
(II) CC(COc1ccccc1)NC(C)C(O)c1ccc(O)cc1 (stereo not drawn)
(III) NNc1ccc(C(F)(F)F)cc1
Ascending sort, melting point. Thanks in advance for listing the labels in the requested order.
III, II, I
(III: 62 °C, II: 102 °C, I: 189 °C)

(I) Oc1ccnc(Cl)c1
(II) CCCCN(CCCC)C(=O)COC(=O)c1ccccc1
I'm curious, which of these has a smaller melting point number: I or II ? In your reply, give the label of the chosen option.
II
(II: 25 °C, I: 171 °C)

----------
REPORTED PROPERTY: melting point (°C)

Sample answers from the record:
O=[N+]([O-])c1cccc(S(=O)(=O)NCCNS(=O)(=O)c2cccc([N+](=O)[O-])c2)c1    190
Nc1cc2c3ccccc3ccc2c2ccccc12    210
O=C1CCc2cc(OCCCCc3nnnn3C3CCCCC3)ccc2N1    160
CC1=C(C(=O)Nc2ccccc2)SCCO1    91.5
CCCOC(=O)C1=C(C)NC(=O)NC1c1ccccc1 (stereo unspecified)    176

(a) O=[N+]([O-])c1ccc(S(=O)(=O)Cl)cc1
(b) CCCCCCCCCCCCCCc1ccccc1
(c) Cc1cc(C(N)=S)n(C)n1
(d) COC(=O)C(Cc1ccccc1)NC(=O)C(N)CC(=O)O (stereo unspecified)
(e) CCOC(=O)C(=O)C(=O)OCC
Put the items in sequence by melting point, from largest down. Thanks in advance for listing the labels in the requested order.
d, c, a, b, e
(d: 246 °C, c: 170 °C, a: 78 °C, b: 16 °C, e: -30 °C)

----------
REPORTED PROPERTY: melting point (°C)

CCOC(=O)c1cc(C(C)=O)ccc1OCC    53
N#CC(=Cc1cccnc1)C1N=c2ccccc2=N1    229
CON(C)C(=O)Nc1ccc(Br)c(Cl)c1    96
CCCC(C)(COC(N)=O)COC(=O)NC(C)C (stereo not drawn)    92
O=C(OC1C(=O)OC(=O)C1OC(=O)c1ccccc1)c1ccccc1 (stereo not drawn)    174

(a) CCC=C(c1ccccc1)c1ccccc1
(b) COc1ccccc1C=C(C(=O)O)c1ccccc1
(c) O=[N+]([O-])c1cc(S(=O)(=O)Cl)ccc1Cl
(d) CC1(O)Cc2cccc(Cl)c21 (stereo not drawn)
Put the items in sequence by melting point, from largest down. Thanks in advance for listing the labels in the requested order.
b, d, c, a
(b: 158 °C, d: 94 °C, c: 60 °C, a: -1 °C)

(A) C=C(C)C1CCC2(C)CCC3(C)C(CCC4C5(C)CCC(O)C(C)(C)C5CCC43C)C12 (stereo not drawn)
(B) CCOC(=O)c1ccc(O)c(OC)c1
Two entries are listed, A and B . Which one carries the higher melting point? In your reply, give the label of the chosen option.
A

(P) O=C1CCCC(=O)N1
(Q) COC(=O)c1cc(Cl)ccc1Br
(R) N#CC1=C(N)OC2(C(=O)Nc3ccccc32)C2=C1CCCC2 (stereo not drawn)
(S) OCCCC1CCCCC1
Ascending sort, melting point. Thanks in advance for listing the labels in the requested order.
S, Q, P, R
(S: -60 °C, Q: 39 °C, P: 156 °C, R: 231 °C)

(a) Cc1c(N(C)C)c(=O)n(-c2ccccc2)n1C
(b) CC(C)COC(=O)c1ccc(C(=O)OCC(C)C)cc1
Two entries are listed, a and b . Which one carries the higher melting point? In your reply, give the label of the chosen option.
a
(a: 134 °C, b: 55 °C)
